B1: Cytoplasmic polyadenylation element-binding protein 2, residues 513 to 575; numbered along this chain, Q7Z5Q1 (parent)
chain: KRVEVKPYVLDDQMCDECQGARCGGKFAPFFCANVTCLQYYCEFCWANIHSRAGREFHKPLVK

Variants of: B1
Assay: abundance fitness (aPCA) (normalised: wild type 0, dead -1); higher = more abundant; growth selection in yeast, the domain comes from the species named
Conditions: Homo sapiens
Label rule, in plain words: abundance fitness of -0.03 and up is t, under -0.03 is f.

Use these answered entries as a reference point.
variant_key=D11Q label=f
variant_key=G54E label=f
variant_key=E56H label=f
variant_key=Y8Q label=t
variant_key=Y40T label=f
variant_key=S51V label=t
variant_key=P29Y label=f
variant_key=L61I label=t

Prompt: Reported abundance fitness reaches at least -0.03 for D12P ?
Completion: f

Prompt: Reported abundance fitness reaches at least -0.03 for C45Q ?
Completion: f

Prompt: Reported abundance fitness reaches at least -0.03 for R2P ?
Completion: t

Prompt: Reported abundance fitness reaches at least -0.03 for G25C ?
Completion: f

Prompt: Reported abundance fitness reaches at least -0.03 for A21R ?
Completion: f

Prompt: Reported abundance fitness reaches at least -0.03 for Q39T ?
Completion: t

Prompt: Reported abundance fitness reaches at least -0.03 for L10F ?
Completion: t

Prompt: Reported abundance fitness reaches at least -0.03 for E43Y ?
Completion: f

Prompt: Reported abundance fitness reaches at least -0.03 for C32H ?
Completion: f

Prompt: Reported abundance fitness reaches at least -0.03 for Y40A ?
Completion: f

Prompt: Reported abundance fitness reaches at least -0.03 for K63W ?
Completion: f

Prompt: Reported abundance fitness reaches at least -0.03 for A47C ?
Completion: f

Prompt: Reported abundance fitness reaches at least -0.03 for S51D ?
Completion: t

Prompt: Reported abundance fitness reaches at least -0.03 for N34H ?
Completion: f
